Item-by-item account of GI50
Tested on: HCT-116
measurement_notes: NCI tumour cell line growth inhibition, 48 h
Active and inactive are the calls of the source. Rule as the data show it: active = GI50 up to about 1.1 µM and inactive = higher.
measure: GI50

COP(=O)(OC)/C(=N\Nc1ccc([N+](=O)[O-])cc1)NCc1ccccc1 = 21 µM (inactive)
Cc1ccc(C2(O)CS/C(=N\C34CC5CC(CC(C5)C3)C4)N2C(P(=O)(O)O)P(=O)(O)O)cc1 (stereo not drawn) = 37.1 µM (inactive)
COC1CC(OC2C(C)OC(OC3C(C)OC(OC4C(C)OC(O[C@H]5CC[C@@]6(C)C(=CC[C@]7(O)[C@@H]6C[C@@H](OC(C)=O)[C@@]6(C)[C@]7(O)CC[C@@]6(O)C(C)=O)C5)CC4OC)CC3OC)CC2OC)OC(C)C1O (stereo partly drawn) = > 25 µM (inactive)
O=C1NC2C(=O)N(Cc3ccccc3)C(=O)C2N1 (stereo not drawn) = > 100 µM (inactive)
COc1cc(/C=C2\N=C(c3ccccc3)N(c3nc4ccccc4s3)C2=O)cc(OC)c1OC = 35 µM (inactive)
CCOC(=O)C1(N)CC1 = > 100 µM (inactive)
CN1CC(c2ccccc2)N(CCCCN2CC(c3ccccc3)N(C)CC2c2ccccc2)CC1c1ccccc1 (stereo not drawn) = 11.9 µM (inactive)
CC(=O)C(/N=N\C1CCC(S(=O)(=O)NB2N=CS2)CC1)C(=O)Nc1ccccc1C (stereo not drawn) = 13.5 µM (inactive)

---

Item-by-item account of GI50
Tested on: HCT-15
measure: GI50 (µM)

CC(C)=CCCC1(Sc2ccccc2)C(=O)OCC1C=C(C)C (stereo not given) = 29.9
O=C(NCCN1CCOCC1)c1ccc2cc(C(=O)N3CC(CCl)c4ccc([N+](=O)[O-])cc43)[nH]c2c1 (stereo not given) = 19.1
CCc1nc(N)nc(N)c1-c1ccc(Cl)cc1 [PYRIMETHAMINE] = 3.94
COC(=O)/C=C1/CCC2[C@@H](C(=O)CC3[C@]2(C)CCC[C@@]3(C)C(=O)OC)C1C (stereo not given in full) = 14
COc1cccc(C2c3cc4c(cc3OC(Nc3ccccc3)C2C)OCO4)c1O (stereo not given) = 5.62

---

Item-by-item account of GI50
Test system: SNB-75
measurement_notes: NCI tumour cell line growth inhibition, 48 h
Active and inactive are the calls of the source. Cut-off read from the data, not from the text of the source: active = GI50 up to about 1.1 µM and inactive = higher.
measure: GI50

O=C(Nc1nc2ccc([N+](=O)[O-])cc2[n+]([O-])n1)C(F)(F)F = 46.2 µM (inactive)
CNS(=O)(=O)NNS(=O)(=O)c1ccc2ccccc2c1 = > 100 µM (inactive)
OCC1OC(OCC(O)C(O)C(O)C(/C=N/Nc2ccccc2)=N/Nc2ccccc2)C(O)C(O)C1O (stereo unspecified) = > 100 µM (inactive)
O=C(CSc1nnc(-c2ccc(/N=C\c3ccc(Cl)cc3)cc2)o1)Nc1ccccc1 = 94.8 µM (inactive)
C[C@@H]1CC[C@H]2C(C)(C)[C@H]3C[C@@]12CC[C@@]3(C)O = > 100 µM (inactive)
COC(=O)CCC(=O)CC1CC(=O)C2CCCN12 (stereo unspecified) = > 100 µM (inactive)
CC(C(=O)O)C1Nc2ccccc2NC1=O (stereo unspecified) = > 100 µM (inactive)
Cc1cc(S(=O)(=O)Nc2nc(N)n(C)n2)c(S)cc1Cl = > 10 µM (inactive)
CS(=O)(=O)N(CCC#N)c1ccc(C=O)cc1 = > 100 µM (inactive)
CC1(C)Cc2c(cnn2-c2ccc(C(F)(F)F)cc2)-c2[nH]c(-c3ccc(O)cc3)nc21 = 8.81 µM (inactive)
C=CCc1c(O)c2nsnc2c2nsnc12 = > 10 µM (inactive)
